assay: in vitro; settings: human
measurement_name: CC50

Past entries and their recorded results:
COc1c(N2C[C@@H]3CCCN[C@@H]3C2)c(F)cc2c(=O)c(C(=O)O)cn(C3CC3)c12 | > 600 µM
C[C@H]1COc2c(N3CCN(C)CC3)c(F)cc3c(=O)c(C(=O)O)cn1c23 | > 600 µM

Okay, next one:
Query: Using the record for "CCn1cc(C(=O)O)c(=O)c2cc(F)c(N3CCNCC3)nc21" , report its CC50.
Result: > 600 µM

---

Reported CC50 values follow for various compounds
assay: in vitro; details: African green monkey

Query: Using the record for "CCn1cc(C(=O)O)c(=O)c2cc(F)c(N3CCNCC3)nc21" , report its CC50.
Result: > 600 µM

Query: Using the record for "COc1c(N2C[C@@H]3CCCN[C@@H]3C2)c(F)cc2c(=O)c(C(=O)O)cn(C3CC3)c12" , report its CC50.
Result: > 600 µM

Query: Using the record for "C[C@H]1COc2c(N3CCN(C)CC3)c(F)cc3c(=O)c(C(=O)O)cn1c23" , report its CC50.
Result: > 600 µM
